Listed below: protein stability index values for each entry.
system: Saccharomyces cerevisiae; experiment: protein stability index of tFT-peptide fusion (C-terminal peptide) (PSI (0-1 scale)); higher = more stable (slower turnover); conditions: genetic background: wild type; temperature: 30 C;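 further: PSI is a weighted mean of sequencing reads over stability bins, variants kept only with over 10 reads, mCherry proximal and sfGFP distal, peptide attached via GGGS linker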
// keep it numeric: no unit symbol after the value

These recorded examples may help you get a feel for the data.
Sequence string | Target system | Experimental readout | Readout number
NLCRLGHTAGVL | Saccharomyces cerevisiae | protein stability index | 0.753
LTRFQPTPCLPP | Saccharomyces cerevisiae | protein stability index | 0.691
GKNKSKKEKKEK | Saccharomyces cerevisiae | protein stability index | 0.668
GGVFYVFFVFVG | Saccharomyces cerevisiae | protein stability index | 0.195
KILRRIFRNGGA | Saccharomyces cerevisiae | protein stability index | 0.615
NSGKPWTLGRQE | Saccharomyces cerevisiae | protein stability index | 0.701
DRVMTLRLTVNP | Saccharomyces cerevisiae | protein stability index | 0.691
VFGAHGRYQDSR | Saccharomyces cerevisiae | protein stability index | 0.607

Challenge: Which protein stability index reading was recorded for the sequence GFTGWGRRWLGG ?
Response given: 0.713

Challenge: Which protein stability index reading was recorded for the sequence LRCRLFIWDGVK ?
Response given: 0.809

Challenge: Which protein stability index reading was recorded for the sequence SRCSAGVASGVL ?
Response given: 0.636

Challenge: Which protein stability index reading was recorded for the sequence PDERMVIPAIRD ?
Response given: 0.665

Challenge: Which protein stability index reading was recorded for the sequence GFPGLFCGPVRF ?
Response given: 0.742

Challenge: Which protein stability index reading was recorded for the sequence HVNGQWEANRRT ?
Response given: 0.697

---

test system: Saccharomyces cerevisiae; assay: protein stability index of tFT-peptide fusion (C-terminal peptide) (PSI (0-1 scale)); higher = more stable (slower turnover); conditions: genetic background: cdc34-1; temperature: 37 C
Experimental readout: protein stability index
// keep it numeric: no unit symbol after the value

These recorded examples may help you get a feel for the data.
Sequence string | Readout number
YVDSGLTLIHLA | 0.606
GTRAGNPDRQRS | 0.678
VLVFYFCFSFCS | 0.144

Challenge: Which protein stability index reading was recorded for the sequence VIRFNSAPRFLV ?
Response given: 0.614

Challenge: Which protein stability index reading was recorded for the sequence SSMSAVFRLQVC ?
Response given: 0.567

Challenge: Which protein stability index reading was recorded for the sequence LPVPARPFPPSS ?
Response given: 0.662

---

Listed below: protein stability index values for each entry.
tested on: Saccharomyces cerevisiae; assay: protein stability index of tFT-peptide fusion (C-terminal peptide) (PSI (0-1 scale)); higher = more stable (slower turnover); details: genetic background: das1 deletion; temperature: 30 C
// keep it numeric: no unit symbol after the value

These recorded examples may help you get a feel for the data.
Sequence string | protein stability index
CWLFVWVRVISL | 0.155
GGMVRSCLWCFV | 0.6
CRCLFVVKNWLS | 0.623

Challenge: Which protein stability index reading was recorded for the sequence RLSLCLAVLFLV ?
Response given: 0.564

Challenge: Which protein stability index reading was recorded for the sequence TLNKDILIIKCA ?
Response given: 0.286

Challenge: Which protein stability index reading was recorded for the sequence SVLASFFSAFVC ?
Response given: 0.598

Challenge: Which protein stability index reading was recorded for the sequence YMVESVWVLLGT ?
Response given: 0.431

Challenge: Which protein stability index reading was recorded for the sequence GLYMCSVGCWFR ?
Response given: 0.223

Challenge: Which protein stability index reading was recorded for the sequence SNFFPVPLLLFR ?
Response given: 0.309

Challenge: Which protein stability index reading was recorded for the sequence YVDSGLTLIHLA ?
Response given: 0.662
